measured_target: glucocorticoid receptor (Rattus norvegicus)
Construct: glucocorticoid receptor from thymus of adrenalectomized rats; from tissue; host or cells: thymus of adrenalectomized rats
Sequence (P06536 whole entry): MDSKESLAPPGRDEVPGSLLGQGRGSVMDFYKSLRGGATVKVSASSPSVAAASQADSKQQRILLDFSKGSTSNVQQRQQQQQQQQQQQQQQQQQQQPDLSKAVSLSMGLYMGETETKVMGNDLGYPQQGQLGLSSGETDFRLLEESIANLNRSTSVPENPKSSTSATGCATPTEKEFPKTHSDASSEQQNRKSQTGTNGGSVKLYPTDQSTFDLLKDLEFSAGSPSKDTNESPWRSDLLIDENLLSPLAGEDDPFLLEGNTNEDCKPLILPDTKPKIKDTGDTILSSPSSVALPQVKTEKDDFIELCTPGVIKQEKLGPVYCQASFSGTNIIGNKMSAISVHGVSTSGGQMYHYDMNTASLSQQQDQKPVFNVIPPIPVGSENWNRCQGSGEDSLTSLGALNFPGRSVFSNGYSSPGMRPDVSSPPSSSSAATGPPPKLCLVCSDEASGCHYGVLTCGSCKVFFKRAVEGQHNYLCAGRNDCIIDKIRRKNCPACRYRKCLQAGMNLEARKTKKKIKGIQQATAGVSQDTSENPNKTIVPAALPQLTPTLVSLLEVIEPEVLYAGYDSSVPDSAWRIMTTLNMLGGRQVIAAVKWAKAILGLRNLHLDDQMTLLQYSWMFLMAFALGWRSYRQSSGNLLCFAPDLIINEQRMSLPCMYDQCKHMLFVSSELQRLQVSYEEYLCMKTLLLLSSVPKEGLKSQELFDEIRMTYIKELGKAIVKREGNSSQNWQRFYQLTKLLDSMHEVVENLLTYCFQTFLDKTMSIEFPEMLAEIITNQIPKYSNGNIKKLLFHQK
protocol: Relative binding affinity to glucocorticoid receptor of thymus (displacement of tritium-labeled dexamethasone)
Design: species or system rat (adrenalectomized)
test_settings: relative to dexamethasone (=100)
Hi there, I'd appreciate the recorded Glucocort. RBA for every entry that follows.
Format: numeric value only, no unit, no commentary.

Input: Query Glucocort. RBA for `CC[C@@H]1C[C@H]2[C@@H]3C[C@@H](C)C4=CC(=O)CCC4=C3[C@@H](c3ccc(N(C)C)cc3)C[C@]2(C)[C@H]1C(C)=O`
Output: 106

Input: Supply measured Glucocort. RBA of `CC(=O)[C@@]1(O)CC[C@H]2[C@@H]3C[C@H](C)C4=CC(=O)CCC4=C3[C@@H](c3ccc(N(C)C)cc3)C[C@@]21C` in your reply.
Output: 175

Input: Complete the entry with Glucocort. RBA for `CC[C@@H]1C[C@H]2[C@@H]3CCC4=CC(=O)CCC4=C3[C@@H](c3ccc(N(C)C)cc3)C[C@]2(C)[C@H]1C(C)=O`
Output: 124

Input: Please list Glucocort. RBA recorded for the compound `CC(=O)O[C@]1(C(C)=O)CC[C@H]2[C@@H]3C[C@H](C)C4=CC(=O)CCC4=C3[C@@H](c3ccc(N(C)C)cc3)C[C@@]21C`
Output: 242
